- TEST SYSTEM: T1, recombinant human ASM protein (human, UniProt P17405 47-630)
- T1 construct: Recombinant human ASM in solution; also called acid sphingomyelinase (ASM) protein
- T1 sequence: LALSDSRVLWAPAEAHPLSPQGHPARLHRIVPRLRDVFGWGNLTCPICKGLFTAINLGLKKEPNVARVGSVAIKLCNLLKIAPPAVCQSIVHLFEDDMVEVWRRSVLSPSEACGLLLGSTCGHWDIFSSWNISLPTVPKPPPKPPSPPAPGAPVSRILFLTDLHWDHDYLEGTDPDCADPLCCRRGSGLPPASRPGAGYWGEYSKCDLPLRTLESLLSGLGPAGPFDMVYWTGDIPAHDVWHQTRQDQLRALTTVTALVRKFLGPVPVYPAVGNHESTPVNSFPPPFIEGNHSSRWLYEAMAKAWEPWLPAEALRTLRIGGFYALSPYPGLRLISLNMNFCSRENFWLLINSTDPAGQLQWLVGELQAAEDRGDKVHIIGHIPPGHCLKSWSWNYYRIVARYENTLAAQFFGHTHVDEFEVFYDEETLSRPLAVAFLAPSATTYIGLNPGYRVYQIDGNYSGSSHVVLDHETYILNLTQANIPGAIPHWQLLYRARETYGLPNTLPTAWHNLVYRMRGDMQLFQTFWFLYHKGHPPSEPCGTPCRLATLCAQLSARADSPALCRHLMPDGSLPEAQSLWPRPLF
- EXPERIMENT NOTES: BLI (Octet), antibody on AHC sensor
Each entry below carries its reported Kd.
Respond numerically; units are pM and should not be typed.

[
  {
    "BINDER": "#9104a-D6 (antibody, human IgG4 S228P, lambda, V domains shown, VH of #9104v-H27 with VL of #9104v-L64; full-length IgG, lambda) VH: EVQLLESGGGLVQPGGSLRLSCAASGFTFSNYYMSWVRQAPGKGLEWVSGTYYDSGYVYYADSVKGRFTISRDNSKNTLYLQMNSLRAEDTAVYYCARDTPGFDYWGQGTLVTVSS VL: QSVLTQPPSASGTPGQRVTISCTGSSSNIGNNAVNWYQQLPGTAPKLLIYYDYFSHSGVPDRFSGSKSGTSASLAISGLRSEDEADYYCGAWDYSLSAYVFGGGTKLTVLG",
    "UNIT INFO": "pM",
    "TEST VALUE": 1070
  },
  {
    "BINDER": "#9104a-D1 (antibody, human IgG4 S228P, lambda, V domains shown, VH of #9104v-H10 with VL of #9104v-L64; full-length IgG, lambda) VH: EVQLLESGGGLVQPGGSLRLSCAASGFTFSNYYMSWVRQAPGKGLEWVSGIYYGNGIPYYADSVKDRFTISRDNSKNTLYLQMNSLRAEDTAVYYCARDTPGFDYWGQGTLVTVSS VL: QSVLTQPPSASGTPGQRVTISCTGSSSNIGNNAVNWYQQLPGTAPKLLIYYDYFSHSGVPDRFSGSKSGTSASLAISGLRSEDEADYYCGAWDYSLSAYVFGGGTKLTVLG",
    "UNIT INFO": "pM",
    "TEST VALUE": 94.8
  },
  {
    "BINDER": "#9104a-D4 (antibody, human IgG4 S228P, lambda, V domains shown, VH of #9104v-H17 with VL of #9104v-L64; full-length IgG, lambda) VH: EVQLLESGGGLVQPGGSLRLSCAASGFTFSNYYMSWVRRAPGKGLEWVSGIYYGSGTPYYAASVKGRFTISRDNSKNTLYLQMNSLRAEDTAVYYCARDTPGFDYWGQGTLVTVSS VL: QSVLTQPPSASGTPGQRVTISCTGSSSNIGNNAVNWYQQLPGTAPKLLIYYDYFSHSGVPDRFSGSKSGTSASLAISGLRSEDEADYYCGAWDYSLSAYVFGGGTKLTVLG",
    "UNIT INFO": "pM",
    "TEST VALUE": 206
  },
  {
    "BINDER": "#9104a-D7 (antibody, human IgG4 S228P, lambda, V domains shown, VH of #9104v-H31 with VL of #9104v-L64; full-length IgG, lambda) VH: EVQLLESGGGLVQPGGSLRLSCAASGFTFSNYYMSWVRQAPGKGLEWVSGVYYGSGTPYYADSVKGRFTISRDNSKNTLYLQMNSLRAEDTAVYYCARDTPGFDYWGQGTLVTVSS VL: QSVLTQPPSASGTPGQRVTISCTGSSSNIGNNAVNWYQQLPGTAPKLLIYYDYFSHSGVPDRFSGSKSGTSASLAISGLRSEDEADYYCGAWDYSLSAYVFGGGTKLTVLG",
    "UNIT INFO": "pM",
    "TEST VALUE": 198
  }
]

Please turn your attention to the following entry.
[Q] Tell me its Kd given #9104a-A6 (antibody, human IgG4 S228P, lambda, V domains shown, VH of #9104v-H27 with VL of #9104v-L20; full-length IgG, lambda) VH: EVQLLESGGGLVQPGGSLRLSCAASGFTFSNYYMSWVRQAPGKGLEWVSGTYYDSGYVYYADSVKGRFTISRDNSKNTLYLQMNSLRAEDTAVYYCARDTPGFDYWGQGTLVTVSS VL: QSVLTQPPSASGTPGQRVTISCTGSSSNIGNNAVNWYQQLPGTAPKLLIYYDMFRPGGVPDRFSGSKSGTSASLAISGLRSEDEADYYCGAWDYSLSAYVFGGGTKLTVLG as the entry.
[A] 768
